These data points were gathered from patent US20210261937.

target: bdSUMO Mut11-MBP fusion protein
observation-type: cleavage of the SUMO fusion protein
Show the value, then the unit it is measured in.

The measured cleavage of the SUMO fusion protein associated with bdSENP1^MutH (protein) PFVPLTDEDEDNVRHALGGRKPSETLSVHEASAIVITREILQCLNDKEWLNDEVINLYLELLKERELREPNKFLKCHFFNTFFYKKLINGYDYKSVREWTTMRKLGYNLIDCDKIFVPIHKDVHWCLAVINIKEKKFQYLDSLGYMDMKALRILAKYLVDEVKDKSGKQIDVHAWKQEGVQNLPLQENGWDCGMFMLKYIDFYSRDMELVFGQKHMSYFRRRTAKEILDLKAG reads 100 % cleavage

The measured cleavage of the SUMO fusion protein associated with bdSENP1^MutB protease (protein) PFVPLTDEDEDNVRHALGGRKRSETLSVHEASSIVITREILQCLNDKEWLNDEVINLYLELLKERELREPNKFLKCHFFNTFFYKKLINGGYDYKSVREWTTKRKLGYNLIDCDKIFVPIHKDVHWCLAVINIKEKKFQYLDSLGYMDMKALRILAKYLVDEVKDKSGKQIDVHAWKQEGVQNLPLQENGWDCGMFMLKYIDFYSRDMELVFGQKHMSYFRRRTAKEILDLKAG reads 100 % cleavage

More entries:
The measured cleavage of the SUMO fusion protein associated with bdSENP1^MutJ (protein) PFVPLTDEDEDNVRHALGGRKESETLSVHEASSIVITREILQCLNDKEWLNDEVINLYLELLKERELREPNKFLKCHFFNTFFYKKLINGGYDYKSVRSWTTTRKLGYNLIDCDKIFVPIHKDVHWCLAVINIKEKKFQYLDSLGYMDMKALRILAKYLVDEVKDKSGKQIDVHAWKQEGVQNLPLQENGWDCGMFMLKYIDFYSRDMELVFGQKHMSYFRRRTAKEILDLKAG reads 100 % cleavage
